Biological target: Endothelial PAS domain-containing protein 1 (Homo sapiens) (UniProt Q99814)
Assay: HIF-2a and HIF-1a reporter inhibition panel, dose response, selectivity assay for HIF-2a inhibitor project, cell-based, luminescence (AID 651581)
Conditions: HIF-2a, mean of runs
The source made the active and inactive calls. The rule behind the calls is not given here.
Labels: active, inactive

>>> print(df.to_string())
                                    compound  category
 0              Cc1ccc(C(=O)c2cccc(N)c2)cc1C    active
 1  CC(=O)Nc1ccc(OS(=O)(=O)c2c(C)cc(C)cc2C)cc1  inactive
 2  O=C(Nc1ccc(NC(=O)c2ccco2)cc1)c1ccc2c(c1)OCCO2    active
 3  CCc1ccc(S(=O)(=O)ON2C(=O)c3ccccc3C2=O)cc1  inactive
 4        COC(=O)CSc1nnc(-c2sc3ccccc3c2Cl)o1    active
 5    C/C(=N/NC(=O)c1cc(C2CC2)[nH]n1)c1cccs1  inactive
 6      COc1cc(/C=N/O)ccc1OCc1ccc(C(=O)O)cc1    active
 7         O=C1C=CC(=O)N1c1cccc(-c2ccccc2)c1    active
 8           Cc1ccoc1C(=O)Nc1ccc(CC(=O)O)cc1    active
 9  COc1ccc(C(=O)/C=C/C(=O)N(CC(=O)NCCC(C)C)Cc2cccs2)c(O)c1    active
10  COc1ccccc1C(C[N+](=O)[O-])c1c(N)n(C)c(=O)n(C)c1=O (stereo unspecified)    active
